# System: intestinal alkaline phosphatase [Mus musculus]
# Experiment description: mouse intestinal phosphatase enzyme activation – biochemical, luminescence, single concentration, confirmation (AID 434970)
# Condition description: purified mouse IAP, CDP-Star luminescence, 30 min, at 10 µM
In all, about 11,000 compounds went through this assay and about 310 (2.8%) were called active. Rule as the data show it: active = activity change below about -85%; inactive = the rest. The entries come from a sample that favours actives as a whole.
Classes to choose from: T for active, F for inactive

> print(dat)
                                   molecule  category
1  Cc1cccc(NC(=O)NC(C)CCc2ccccc2)c1 (stereo not drawn)         T

With those in mind, consider the next molecule.
Identify the outcome logged in this assay for the molecule shown: S=C(NCCCc1ccccc1)Nc1ccc(Br)cc1 F

----------
# System: intestinal alkaline phosphatase [Mus musculus]
# Experiment description: mouse intestinal phosphatase enzyme activation – biochemical, luminescence, single concentration, confirmation (AID 434970)
# Condition description: purified mouse IAP, CDP-Star luminescence, 30 min, at 10 µM; measured here: IAP activation factor, stronger effect = higher value
Hit rate of the full screen: of about 11,000 compounds, about 310 (2.8%) were called active. This is one part of a sample in which actives are shown more often than they occur.
Would you mind labelling by activation factor? At or over 2 is yes, under is no.

The examples below pair each entry with its known result.
> print(dat)
                                   compound                                       tgt  category
1    Cc1noc(-c2ccccc2)c1NC(=O)Nc1ccc(Cl)cc1  intestinal alkaline phosphatase [Mus musculus]        no
2  C[C@H](CO)N1C[C@H](C)[C@@H](CN(C)S(=O)(=O)c2cccs2)Oc2ccc(NC(=O)Nc3ccccc3)cc2C1=O  intestinal alkaline phosphatase [Mus musculus]       yes
3                   COC(=O)Nc1ccc2c(c1)OCO2  intestinal alkaline phosphatase [Mus musculus]        no

Could you now look at the following compound, please?
Please indicate if the recorded activation factor for Cc1ccc(NC(=O)N/C=C/c2ccccc2)cc1 meets or exceeds 2. no

----------
# System: intestinal alkaline phosphatase [Mus musculus]
# Experiment description: mouse intestinal phosphatase enzyme activation – biochemical, luminescence, single concentration, confirmation (AID 434970)
# Condition description: purified mouse IAP, CDP-Star luminescence, 30 min, at 10 µM; measured here: IAP activation factor, stronger effect = higher value
About 310 (2.8%) of roughly 11,000 compounds were called active. This excerpt belongs to a sample that is enriched for actives.
Quick rule: activation factor of at least 2 means 1, below that means -1.

Molecule	Category
Cc1ccc(NC(=S)NC(NC(=O)c2ccccc2C)C(Cl)(Cl)Cl)c(C)c1 (stereo not drawn)	1
CCOC(=O)c1c(C)[nH]c(C(=O)CSc2nnc(CC(C)c3ccccc3)o2)c1C (stereo not drawn)	-1
C[C@H](CO)N1C[C@H](C)[C@@H](CN(C)S(=O)(=O)c2ccc(F)cc2)Oc2ccc(NC(=O)NC3CCCCC3)cc2C1=O	1
CCCCN1CCc2c([nH]c3c(C)cccc23)C1=O	-1
Cc1ccccc1NC(=S)NC(NC(=O)c1ccccc1C)C(Cl)(Cl)Cl (stereo not drawn)	1

// inclusive: activation factor at least 2? input: O=C(Nc1ccc(Cl)cc1)NC1CCCCC1Cc1ccco1 (stereo not drawn) 1

Dear colleague, could you confirm whether C[C@@H]1CN([C@@H](C)CO)C(=O)c2cc(NC(=O)Nc3ccc4c(c3)OCO4)ccc2O[C@H]1CN(C)S(=O)(=O)c1ccc(F)cc1 has activation factor at or above 2? -1

Entry C[C@H](CO)N1C[C@H](C)[C@@H](CN(C)S(=O)(=O)c2ccc(F)cc2)Oc2ccc(NC(=O)Nc3ccc4c(c3)OCO4)cc2C1=O : is its activation factor no less than 2? -1

Given the entry CC1N(O)C(C)(C)C(c2ccccc2)=[N+]1[O-] (stereo not drawn) , answer whether its activation factor meets or surpasses 2. -1

API: above_or_equal(metric=activation factor, cutoff=2) for item O=C(Nc1ccc(Cl)cc1)C1CCN(C(=O)NC2CCCCC2)CC1 -1

I'd appreciate it if you could say whether O=C1[C@@H](Oc2ccccc2)[C@@H](c2ccccc2)N1c1ccccc1 has activation factor at least equal to 2. -1

Does the molecule COC(=O)c1ccc(CC(=O)c2c(C)cc(O)cc2O)o1 have recorded activation factor that is 2 or more? -1

Quick check: does COc1ccc(S(=O)(=O)N(C)C[C@H]2Oc3ccc(NC(=O)NC4CCCCC4)cc3C(=O)N([C@H](C)CO)C[C@@H]2C)cc1 have activation factor greater than or equal to 2? 1

Item C#CCOCCOCCOCCNc1nc(N2CCN(C(=O)CCCCCCCCCCNC(=O)[C@H]([C@@H](C)CC)n3cc(CCCCCN)nn3)CC2)nc(N2CCN(C(=O)CCCCCCCCCCNC(=O)[C@@H]([C@H](C)CC)n3cc(CCCCCN)nn3)CC2)n1 with activation factor of 2 or above? 1
